# studySystem: human αvβ5 expressed on BaF3 cells (stably transfected with human αv and β5 subunits) (human, UniProt P06756 31-1048; P18084 24-799)
# Sequence (P06756 31-1048 limits assumed, chain 1 of 2): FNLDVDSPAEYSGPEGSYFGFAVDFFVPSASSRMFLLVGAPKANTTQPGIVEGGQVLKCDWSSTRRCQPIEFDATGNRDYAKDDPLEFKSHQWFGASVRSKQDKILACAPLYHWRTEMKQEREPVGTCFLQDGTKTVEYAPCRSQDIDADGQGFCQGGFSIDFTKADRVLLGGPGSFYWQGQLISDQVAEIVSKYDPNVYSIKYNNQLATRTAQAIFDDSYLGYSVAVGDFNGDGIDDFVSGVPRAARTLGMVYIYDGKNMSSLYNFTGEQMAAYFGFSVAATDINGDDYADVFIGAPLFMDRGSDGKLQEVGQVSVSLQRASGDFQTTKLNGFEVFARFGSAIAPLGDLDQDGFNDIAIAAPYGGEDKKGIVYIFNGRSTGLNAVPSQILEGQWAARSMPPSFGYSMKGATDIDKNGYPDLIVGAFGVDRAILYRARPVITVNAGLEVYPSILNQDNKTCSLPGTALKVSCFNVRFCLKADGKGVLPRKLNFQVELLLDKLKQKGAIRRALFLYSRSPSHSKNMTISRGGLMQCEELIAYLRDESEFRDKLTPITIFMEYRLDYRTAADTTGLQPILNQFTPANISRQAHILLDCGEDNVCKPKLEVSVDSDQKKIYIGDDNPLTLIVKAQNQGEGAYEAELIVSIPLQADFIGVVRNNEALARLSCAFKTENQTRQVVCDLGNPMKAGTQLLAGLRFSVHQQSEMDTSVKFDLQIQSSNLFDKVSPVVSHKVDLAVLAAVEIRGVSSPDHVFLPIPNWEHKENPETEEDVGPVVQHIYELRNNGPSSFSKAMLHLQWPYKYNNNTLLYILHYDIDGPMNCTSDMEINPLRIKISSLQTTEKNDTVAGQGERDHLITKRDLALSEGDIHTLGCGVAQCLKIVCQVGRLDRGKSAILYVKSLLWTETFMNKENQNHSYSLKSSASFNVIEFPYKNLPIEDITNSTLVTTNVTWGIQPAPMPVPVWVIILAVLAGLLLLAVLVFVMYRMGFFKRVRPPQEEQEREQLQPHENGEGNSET
# Sequence (P18084 24-799 limits assumed, chain 2 of 2): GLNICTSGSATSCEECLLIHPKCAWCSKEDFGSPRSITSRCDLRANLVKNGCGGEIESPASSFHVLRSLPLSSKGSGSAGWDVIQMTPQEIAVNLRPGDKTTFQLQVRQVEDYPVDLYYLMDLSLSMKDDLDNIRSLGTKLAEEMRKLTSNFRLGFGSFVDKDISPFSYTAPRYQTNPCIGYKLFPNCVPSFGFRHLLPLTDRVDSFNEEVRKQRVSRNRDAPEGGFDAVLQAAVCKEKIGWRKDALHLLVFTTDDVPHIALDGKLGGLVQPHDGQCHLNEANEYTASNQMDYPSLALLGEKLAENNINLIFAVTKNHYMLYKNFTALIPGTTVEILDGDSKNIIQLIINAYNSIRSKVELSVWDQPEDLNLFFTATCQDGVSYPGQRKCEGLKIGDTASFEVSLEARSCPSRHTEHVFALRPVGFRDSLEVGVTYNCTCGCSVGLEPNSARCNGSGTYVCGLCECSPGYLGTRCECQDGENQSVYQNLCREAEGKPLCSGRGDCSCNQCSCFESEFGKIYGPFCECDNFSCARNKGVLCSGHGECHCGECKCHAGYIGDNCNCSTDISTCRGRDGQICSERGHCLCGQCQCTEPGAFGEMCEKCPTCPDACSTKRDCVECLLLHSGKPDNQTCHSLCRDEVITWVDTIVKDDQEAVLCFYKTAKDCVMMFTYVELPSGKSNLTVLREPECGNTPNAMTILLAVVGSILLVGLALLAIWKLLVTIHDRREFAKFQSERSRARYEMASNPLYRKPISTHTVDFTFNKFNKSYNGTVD
# protocolSummary: cell-based or functional assay
readoutName: BaF3-hu αvβ5 Cell adhesion to vitronectin (IC50, nM)
Answers are plain numbers, in nM.

Exercise: Reported BaF3-hu αvβ5 Cell adhesion to vitronectin (IC50, nM) for VH2/VL2 Agly-IgG4.P (S228P)/IgG1 (N297Q) (antibody, V domains shown, also called VH2/VL2 (Agly-IgG4P/G1); H2/L2) VH: EVQVVQSGGGLVKPGESLRLSCAASGYTFTSYWMHWVKQAPGKGLEWVGAIYPGNSDTSYNQKFKGKFTISADTSSNTAYLQMNSLKTEDTAVYYCTTTTYGYDWFAYWGQGTLVTVSS VL: NIQMTQSPSSLSASVGDRVTMSCKSSQSVLYSSNQKNYLAWYQQKPGKSPKLLIYWASTRESGVPDRFTGSGSGTDFTLTISSLQPEDFATYYCHQYLSSLTFGQGTKLEIKR : what is it?
Solution: 0.3

FYI, the data here is from patent US20170362324A1.
